System: LoVo
assay.info: Antiproliferative activity against human LoVo cells incubated for 72 hrs by SRB assay
Assay type: functional, cell-based
Criterion: IC50 strictly under 8 nM. Met: t. Not met: f.

structure.notation: COc1c(I)c2c(c(OC)c1OC)-c1ccc(SC)c(=O)cc1[C@@H](N)CC2
class: f
--
structure.notation: COc1c(I)c2c(c(OC)c1OC)-c1ccc(SC)c(=O)cc1[C@@H](NC(=O)CCCCl)CC2
class: f
--
structure.notation: COc1cc2c(c(OC)c1OC)-c1ccc(SC)c(=O)cc1[C@@H](NC(=O)CCCCl)CC2
class: f
--
structure.notation: COCC(=O)N[C@H]1CCc2c(I)c(OC)c(OC)c(OC)c2-c2ccc(SC)c(=O)cc21
class: t
--
structure.notation: COc1cc2c(c(OC)c1OC)-c1ccc(SC)c(=O)cc1[C@@H](NC(=O)c1ccccc1)CC2
class: t
--
structure.notation: COc1cc2c(c(OC)c1OC)-c1ccc(SC)c(=O)cc1[C@@H](NC(=O)C(C)C)CC2
class: f
--
structure.notation: CCCCCCCCCC(=O)N[C@H]1CCc2c(I)c(OC)c(OC)c(OC)c2-c2ccc(SC)c(=O)cc21
class: f
--
structure.notation: CCC(=O)N[C@H]1CCc2cc(OC)c(OC)c(OC)c2-c2ccc(SC)c(=O)cc21
class: f
--
structure.notation: CCN(CC)C(=O)N[C@H]1CCc2c(I)c(OC)c(OC)c(OC)c2-c2ccc(SC)c(=O)cc21
class: f
--
structure.notation: COc1c(I)c2c(c(OC)c1OC)-c1ccc(SC)c(=O)cc1[C@@H](NC(C)=O)CC2
class: t
--
structure.notation: CCCCCCCCCC(=O)N[C@H]1CCc2cc(OC)c(OC)c(OC)c2-c2ccc(SC)c(=O)cc21
class: t
--
structure.notation: CCN(CC)C(=O)N[C@H]1CCc2cc(OC)c(OC)c(OC)c2-c2ccc(SC)c(=O)cc21
class: f
--
structure.notation: COc1c(I)c2c(c(OC)c1OC)-c1ccc(SC)c(=O)cc1[C@@H](NC(=O)C(C)C)CC2
class: t
--
structure.notation: COc1c(I)c2c(c(OC)c1OC)-c1ccc(SC)c(=O)cc1[C@@H](NC(=O)c1ccccc1)CC2
class: t
--
structure.notation: CCC(=O)N[C@H]1CCc2c(I)c(OC)c(OC)c(OC)c2-c2ccc(SC)c(=O)cc21
class: t
--
structure.notation: COc1c(I)c2c(c(OC)c1OC)-c1ccc(OC)c(=O)cc1[C@@H](NC(C)=O)CC2
class: f
